Values were extracted from PubChem BioAssay.

- system: Sentrin-specific protease 8 (Homo sapiens) (UniProt Q96LD8)
- Sequence (Q96LD8 whole entry, looked up): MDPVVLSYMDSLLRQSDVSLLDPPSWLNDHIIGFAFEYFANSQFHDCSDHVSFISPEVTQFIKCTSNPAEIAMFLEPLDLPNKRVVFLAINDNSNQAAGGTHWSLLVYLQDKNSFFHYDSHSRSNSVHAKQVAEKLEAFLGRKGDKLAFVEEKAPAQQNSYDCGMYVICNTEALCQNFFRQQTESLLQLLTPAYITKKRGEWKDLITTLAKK
- measurement_notes: SENP8 protease inhibitors, retest, confirmation, biochemical, luminescence, single concentration (AID 488912)
- settings: Recombinant SENP8, Z-RLRGG-aminoluciferin luminescence, 60 min; at 12.5 µM; stronger effect = higher value
The list shows a part of the results.
Label TRUE when inhibition is at or above 20%; anything below gets FALSE.

hey, is inhibition for this one >= 20%? O=C(Nc1cc2ccccc2oc1=O)C1CCCCC1 FALSE

hey, is inhibition for this one >= 20%? COc1ccc(C(CC(=O)c2ccccc2)S(=O)(=O)c2ccccc2)cc1 (stereo unspecified) TRUE

hey, is inhibition for this one >= 20%? COc1ccc(-c2cn3ccc(C)cc3n2)cc1 FALSE

hey, is inhibition for this one >= 20%? O=C(Nc1ccccc1Cl)Nc1cccc2cccnc12 TRUE

hey, is inhibition for this one >= 20%? CCC(=O)Nc1ccc2nn(-c3ccc(F)cc3)nc2c1 FALSE

hey, is inhibition for this one >= 20%? O=[N+]([O-])c1ccc2nc(-c3ccccn3)[nH]c2c1 TRUE

====

- measurement_notes: inhibitors of PAF-induced NFkB signaling in CF airway cells, dose response, cell-based, uHTS hits, panel, cytotoxicity readout (AID 624344)
- settings: CF bronchial epithelial cells, PAF-induced NFkB reporter inhibition, with PAF, run 1; at 79 µM (top of the series) unless noted
property: inhibition (%)
Report the figure in % without appending any unit label.

Consider the compound CCOc1ccc(CCN2C(=S)N([C@@H](CC(C)C)CN3CCCC3CN3C(=S)NC[C@@H]3CC(C)C)C[C@@H]2Cc2ccc(O)cc2)cc1 (stereo not given in full) and give its measured inhibition. 76.2

Consider the compound O=C1NC(=S)N/C1=C\c1cccnc1 and give its measured inhibition. 99.3

Consider the compound O=C(N/N=C/c1ccccc1)c1[nH]c2ccc(Br)cc2c1-c1ccccc1 and give its measured inhibition. 76.6

Consider the compound COc1cc(-c2cnc3c(NC=O)cc(-c4ccc(C)cc4)cn23)cc(OC)c1OC and give its measured inhibition. 70.3

Consider the compound COc1ccc(-c2cn[nH]c2-c2ccc(OCc3ccccc3)cc2O)cc1 and give its measured inhibition. 99.8

Consider the compound O=C(Nc1ccc([N+](=O)[O-])cc1)Nc1ccc(Cl)cc1F and give its measured inhibition. 109

Consider the compound O=C(Nc1ccccc1)c1cc2ccccc2c(=O)s1 and give its measured inhibition. 50.8

Consider the compound Oc1ccc(Nc2ncnc3scc(-c4ccccc4)c23)cc1 and give its measured inhibition. 56

Consider the compound O=C(O)/C=C/c1ccc2c(-c3ccccc3)onc2c1 and give its measured inhibition. 113

Consider the compound Cc1cccc(C(=O)N2[C@@H](C(C)C)COc3cc(Br)ccc3S2(=O)=O)c1 and give its measured inhibition. 102

====

- measurement_notes: HIF-1a luciferase reporter signal reduction – MiaPaCa-2 cells, single concentration, counter-screen for HIF-2a inhibitor project, confirmation (AID 651589)
- settings: MiaPaCa-2 HIF-1a luciferase reporter, desferoxamine, overnight; at 18.8 µM
The other results are listed elsewhere or left out. Active and inactive are the calls of the source.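 How the source made its calls: active means mean inhibition of the reporter signal across four replicates at the single tested dose of 50% or more; inactive means the rest.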
Write down one outcome, taken from True (active), False (inactive)

Recorded test call requested for O=C(O)c1ccc(N/N=C/c2ccc3ncccc3c2)cc1 False

Recorded test call requested for O=C(Nc1ccccc1)c1nnsc1S(=O)(=O)c1ccc(Cl)cc1 False

Recorded test call requested for COc1ccc(C(=O)/C=C/c2ccc(-c3ccccc3)cc2)cc1CSCC(=O)O True

Recorded test call requested for Cc1ccccc1C(CC(=O)c1cccs1)C(C#N)C#N (configuration not stated) True

Recorded test call requested for Cc1cccc(NC(=O)c2nc(S(=O)(=O)Cc3ccccc3)ncc2Cl)c1 True

Recorded test call requested for COC(=O)c1c(NC(=O)CCCC(=O)O)sc2c1CCCCC2 False

Recorded test call requested for NC(N)=Nc1nc(-c2ccccc2)c2cc(Cl)ccc2n1 True

Recorded test call requested for CCN1CCN(CCNC(=O)c2ccc3c(c2)NC(=O)/C(=C\c2cccc(Cl)c2)S3)CC1 True

Recorded test call requested for CC(C)C[C@@H](N)c1nnc(SCC(=O)c2ccc(Cl)cc2)o1 False

Recorded test call requested for O=C1C=C(c2ccc(Cl)cc2)C(=O)N1Nc1ccccc1 False

Recorded test call requested for Cc1cccc(CS(=O)(=O)c2ncc(Cl)c(C(=O)Nc3ccc(F)cc3)n2)c1 True

Recorded test call requested for CCCc1[nH]nc2c1C(C1CC=CCC1)C(C#N)=C(N)O2 (configuration not stated) False

Recorded test call requested for CSc1nc(-c2ccccc2)nc(C(Cl)Cl)n1 True

Recorded test call requested for Cc1ccc(CS(=O)(=O)c2ncc(Cl)c(C(=O)Nc3nnc(C)s3)n2)cc1 True

Recorded test call requested for COCC(C)n1c(C)cc(C(=O)COc2ccc(C)nc2[N+](=O)[O-])c1C (configuration not stated) False

Recorded test call requested for Cc1cc(-c2n[nH]c(=S)n2/N=C/C(Br)=C/c2ccccc2)n[nH]1 True

Recorded test call requested for COc1cc(SC)ccc1C(=O)Nc1nc(C)cs1 True

Recorded test call requested for Cc1cccc(-n2ncc(Cl)c(Cl)c2=O)c1 True

Recorded test call requested for Cc1cc(Cl)c(S(=O)(=O)Nc2ccc3c(c2)OCCO3)cc1OCC(N)=O True

Recorded test call requested for CN1OC[C@@H]2CN(S(=O)(=O)c3cccc(C(F)(F)F)c3)[C@H](c3ccc(-c4cc5ccccc5o4)cc3)C[C@@H]21 True

Recorded test call requested for CC[C@@H]1Cc2cc(O)ccc2C2=C1c1ccc(O)cc1C[C@H]2CC True

Recorded test call requested for COc1ccccc1-n1nnnc1S(=O)(=O)Cc1ccc(Cl)cc1 True
